# target-desc: HLA-B*48:01
# experiment: IEDB peptide-MHC binding, purified MHC/direct/fluorescence; filed as Kd, often an IC50 or EC50 that approximates it; bounds were set here for any values at or beyond the usual limits of such assays
# measurement-parameters: source organism: Yellow fever virus
pKd: −log10 of the molar value.
parameter-measured: pKd

{"columns": ["record-sequence", "target-desc", "parameter-measured", "data-value"],
 "data": [
  ["SCRVKLSAL", "HLA-B*48:01", "pKd", "≤ 4.70"]
]}

---

# target-desc: HLA-A*11:01
# experiment: IEDB peptide-MHC binding, purified MHC/direct/fluorescence; filed as Kd, often an IC50 or EC50 that approximates it; bounds were set here for any values at or beyond the usual limits of such assays
# measurement-parameters: source organism: Vibrio vulnificus
parameter-measured: Kd

{"columns": ["record-sequence", "target-desc", "data-value"],
 "data": [
  ["VNGVKGIQF", "HLA-A*11:01", "≥ 20 µM"]
]}
